System: SF-268
assay-name: NCI tumour cell line growth inhibition, 48 h
Active and inactive are the calls of the source. Rule as the data show it: active = GI50 up to about 1.1 µM and inactive = higher.
Labels: TRUE for active, FALSE for inactive

{"molecule": "CC(=O)OCC1(C)C(O)CCC2(C)C1CCC1CC3CC12CCC3(O)CO (stereo unspecified)", "category-label": "FALSE"}
{"molecule": "NC(CC(O)(c1ccccc1)c1ccccc1)c1ccccc1S (stereo unspecified)", "category-label": "FALSE"}
{"molecule": "CCC1(O)C(=O)OCc2c1cc1n(c2=O)Cc2cc3cc(N)ccc3nc2-1 (stereo unspecified)", "category-label": "TRUE"}
{"molecule": "O=C(NNC(=S)Nc1ccccc1)c1nsc2ccccc12", "category-label": "FALSE"}
{"molecule": "CC(=O)CC(=O)ON(C)C(C)=O", "category-label": "FALSE"}
{"molecule": "Cc1cc(C)c2c(O)cc(-c3cccc(Cl)c3)nc2n1", "category-label": "TRUE"}
{"molecule": "CCOC(=O)c1cn2c([nH]c3ccccc32)c(C#N)c1=O", "category-label": "FALSE"}
{"molecule": "O=C1c2ccccc2C(=O)N1C/C=N/NS(=O)(=O)c1ccc(Cl)cc1", "category-label": "FALSE"}
{"molecule": "Cc1cc2c(cc1-c1cc3c(cc1C)C(C(C)C)=C(O)C(=O)/C3=C\\Nc1nc(-c3ccccc3)cs1)/C(=C/Nc1nc(-c3ccccc3)cs1)C(=O)C(O)=C2C(C)C", "category-label": "FALSE"}
{"molecule": "Cc1c2c(OCCN3CCCCC3)nn(C)c(=O)c2c(C)n1-c1ccccc1", "category-label": "FALSE"}
{"molecule": "CC(C)NCCC(O)c1cc2ccccc2o1 (stereo unspecified)", "category-label": "FALSE"}

Where do these numbers come from? They come from ChEMBL document CHEMBL1201862.
